Below, each entry is listed with its recorded IE %.
- assayNotes: Gravimetry (weight loss), corrosion inhibition
- measurementParameters: 0.5 ppm; mild steel in 1N HCl
- Method: The corrosion rates were determined by electrochemical impedance spectroscopy measurements and gravimetry. Weight loss measurements were performed on 2.5×2.0×0.1 cm rectangular mild steel coupons. The mild steel coupons were immersed into non-de-aerated HCl 1N solution in absence and presence of different concentrations of compounds of general formula (I). After the elapsed time, the coupons were taken out, washed, dried and weighed accurately. Experiments were duplicated. […]

# smilesData, unitString, IE %
data = [
    ("CN(C)CCOc1ccc(CCn2cc(-c3ccc(-c4cn(CCc5ccc(OCCN(C)C)c(I)c5)nn4)cc3)nn2)cc1I", "%", 94.67),
    ("CN(C)CCCOc1ccc(CCn2cc(-c3ccc(-c4cn(CCc5ccc(OCCCN(C)C)c(Br)c5)nn4)cc3)nn2)cc1Br", "%", 91.11),
    ("CN(C)CCCOc1c(Br)cc(CCn2cc(-c3ccc(-c4cn(CCc5cc(Br)c(OCCCN(C)C)c(Br)c5)nn4)cc3)nn2)cc1Br", "%", 92.23),
    ("CN(C)CCOc1ccc(-n2cc(-c3ccc(-c4cn(-c5ccc(OCCN(C)C)cc5)nn4)cc3)nn2)cc1", "%", 94.34),
    ("CN(C)CCOc1ccc(CCn2cc(CCCCCCc3cn(CCc4ccc(OCCN(C)C)c(Br)c4)nn3)nn2)cc1Br", "%", 92.66),
    ("CN(C)CCCOc1ccc(CCCn2cc(-c3ccc(-c4cn(CCCc5ccc(OCCCN(C)C)c(Br)c5)nn4)cc3)nn2)cc1Br", "%", 96.30),
    ("CN(C)CCOc1ccc(CCn2cc(-c3ccc(-c4cn(CCc5ccc(OCCN(C)C)c(Cl)c5)nn4)cc3)nn2)cc1Cl", "%", 95.82),
    ("CN(C)CCCOc1ccc(CCn2cc(CNCc3cn(CCc4ccc(OCCCN(C)C)c(Br)c4)nn3)nn2)cc1Br", "%", 91.72),
    ("CN(C)CCCOc1ccc(CCn2cc(-c3ccc(-c4cn(CCc5ccc(OCCCN(C)C)c(Cl)c5)nn4)cc3)nn2)cc1Cl", "%", 95.90),
    ("CN(C)CCOc1ccc(CCn2cc(CCCc3cn(CCc4ccc(OCCN(C)C)c(Br)c4)nn3)nn2)cc1Br", "%", 91.72),
    ("CN(C)CCCOc1ccc(CCn2cc(-c3cccc(-c4cn(CCc5ccc(OCCCN(C)C)c(Br)c5)nn4)c3)nn2)cc1Br", "%", 91.72),
    ("CN(C)CCOc1ccc(CCCn2cc(-c3ccc(-c4cn(CCCc5ccc(OCCN(C)C)c(Br)c5)nn4)cc3)nn2)cc1Br", "%", 95.44),
    ("CN(C)CCOc1ccc(CCn2cc(-c3cccc(-c4cn(CCc5ccc(OCCN(C)C)c(Br)c5)nn4)c3)nn2)cc1Br", "%", 94.07),
    ("CN(C)CCOc1c(Br)cc(CCn2cc(-c3ccc(-c4cn(CCc5cc(Br)c(OCCN(C)C)c(Br)c5)nn4)cc3)nn2)cc1Br", "%", 95.89),
    ("CN(C)CCOc1ccc(CCn2cc(-c3ccc(-c4cn(CCc5ccc(OCCN(C)C)cc5)nn4)cc3)nn2)cc1", "%", 95.49),
    ("CN(C)CCCOc1ccc(CCn2cc(-c3ccc(-c4cn(CCc5ccc(OCCCN(C)C)c(I)c5)nn4)cc3)nn2)cc1I", "%", 94.51),
]
